# credit: the supplement of paper PMC10567573

B1: CPXM2 (parent)
chain: EILGCPLPDPNNYYHRRNEMTTTD

- Variants of: B1
- run-description: protein stability index of a GFP-peptide fusion (GPS, HEK-293T) (PSI 1-6); higher = more stable;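 note: lentivirally expressed fusions sorted by FACS into six bins by GFP to DsRed ratio, PSI derived from sequencing read proportions per bin multiplied by bin number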
- reported-conditions: c terminus: a fixed tail appended
property-measured: protein stability index
Respond with the number and no other words.

# mutation-name, protein stability index
records = [
    ("L3A", 4.09),
    ("M20T", 4.6),
    ("N11G", 3.15),
]

Entry under review: H15A . Reported protein stability index? 3.71

Suppose we examine the variant E19D ; what protein stability index value has been reported? 3.62

May I ask what protein stability index has been recorded for L7G ? 3.48
